Please respond with reported inhibition at 1 µM for every item in the list.
- Test Target: hDGAT1 (Homo sapiens, UniProt O75907)
- Sequence (O75907 whole entry): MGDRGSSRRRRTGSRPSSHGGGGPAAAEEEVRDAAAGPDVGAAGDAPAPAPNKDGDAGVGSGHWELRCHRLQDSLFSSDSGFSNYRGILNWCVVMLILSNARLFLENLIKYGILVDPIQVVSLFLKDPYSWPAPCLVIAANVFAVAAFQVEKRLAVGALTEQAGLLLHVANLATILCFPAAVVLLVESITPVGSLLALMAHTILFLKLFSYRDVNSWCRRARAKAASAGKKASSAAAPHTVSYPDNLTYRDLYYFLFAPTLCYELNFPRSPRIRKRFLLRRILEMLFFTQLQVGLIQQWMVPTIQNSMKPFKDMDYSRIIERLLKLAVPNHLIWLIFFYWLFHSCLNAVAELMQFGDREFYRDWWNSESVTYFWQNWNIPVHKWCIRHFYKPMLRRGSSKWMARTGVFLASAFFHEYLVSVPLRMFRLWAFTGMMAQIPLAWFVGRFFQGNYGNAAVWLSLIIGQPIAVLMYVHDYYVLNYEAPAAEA
- Test Description: In-vitro DGAT1 assay (14C oleoyl CoA, hDGAT1 microsomes from Sf9 cells)
- Recorded Conditions: read-out: % Inhibition of hDGAT1

What does the record list as inhibition at 1 µM for `CC(C)[C@@H](C(=O)O)N1Cc2ccc(-c3ccc(NC(=O)c4ncc(-c5ccccc5)o4)cn3)cc2C1=O` ?
> 50%

inhibition at 1 µM for `CC(C)[C@@H](C(=O)O)N1Cc2ccc(-c3ccc(NC(=O)c4nnc(-c5ccccc5)[nH]4)cc3)cc2C1=O` ?
10 to 50%

Find the recorded inhibition at 1 µM belonging to `CC(C)[C@@H](C(=O)O)N1Cc2ccc(-c3ccc(NC(=O)c4ccc(C(F)(F)F)c(F)c4)cc3)cc2C1=O` and report it.
> 50%

Reported inhibition at 1 µM for `CC(C)[C@@H](C(=O)O)N1Cc2ccc(-c3ccc(NC(=O)c4cccc(C(F)(F)F)c4F)cc3)cc2C1=O` : what is it?
10 to 50%

# input molecule: `COc1ccc(S(=O)(=O)Nc2ccc(-c3ccc4c(c3)CN([C@H](C(=O)O)C(C)C)C4=O)cc2)cc1` ; wanted: its inhibition at 1 µM
10 to 50%

So what does the record say about inhibition at 1 µM for `O=C(Nc1ccc(-c2ccc3c(c2)C(=O)N(C2(C(=O)O)CCCC2)C3)cc1)Nc1cccc(C(F)(F)F)c1` ?
10 to 50%

Data request, read-out inhibition at 1 µM, for `CC(C)[C@@H](C(=O)O)N1Cc2ccc(-c3ccc(NC(=O)Nc4ccc(F)c(F)c4)cc3)cc2C1=O`
10 to 50%
